target: Matrix metalloproteinase-9 (Homo sapiens, UniProt P14780); assay: Percent remaining enzyme activity (RA) in human gelatinase B (matrix metalloprotease-9); set-up: concentration or dose not given beside the values
Sequence (P14780 whole entry): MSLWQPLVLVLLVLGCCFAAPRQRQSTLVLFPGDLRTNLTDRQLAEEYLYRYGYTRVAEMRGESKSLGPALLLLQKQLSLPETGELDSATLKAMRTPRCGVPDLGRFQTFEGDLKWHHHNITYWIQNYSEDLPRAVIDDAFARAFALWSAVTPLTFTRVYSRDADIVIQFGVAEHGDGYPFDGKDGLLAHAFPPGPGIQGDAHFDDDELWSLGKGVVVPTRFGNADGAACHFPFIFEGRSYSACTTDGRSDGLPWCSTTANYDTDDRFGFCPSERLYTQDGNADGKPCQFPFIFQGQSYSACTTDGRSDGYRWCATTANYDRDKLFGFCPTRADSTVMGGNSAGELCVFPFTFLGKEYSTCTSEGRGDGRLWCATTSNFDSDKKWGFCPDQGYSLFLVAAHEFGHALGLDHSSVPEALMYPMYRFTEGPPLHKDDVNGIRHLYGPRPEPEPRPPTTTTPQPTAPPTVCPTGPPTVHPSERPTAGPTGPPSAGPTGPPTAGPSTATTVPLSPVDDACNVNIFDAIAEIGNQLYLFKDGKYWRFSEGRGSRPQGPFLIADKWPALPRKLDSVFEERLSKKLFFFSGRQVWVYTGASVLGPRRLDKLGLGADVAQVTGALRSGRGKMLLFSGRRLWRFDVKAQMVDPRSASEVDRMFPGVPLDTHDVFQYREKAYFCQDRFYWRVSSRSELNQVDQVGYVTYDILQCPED
Labelling: residual activity reported below 40% becomes Satisfied; at or above becomes Not satisfied.

{"columns": ["compound", "assigned.category"],
 "data": [
  ["O=C(NO)C(=O)NCCC(NC(=O)C(=O)NO)C1CCCCC1 (stereo not given)", "Satisfied"],
  ["C[C@H](NC(=O)[C@H](Cc1ccc(OCc2ccccc2)cc1)NC(=O)C(=O)NO)c1ccccc1", "Satisfied"],
  ["CC(NC(=O)[C@H](Cc1ccccc1)NC(=O)C(=O)NO)c1cccc2ccccc12 (stereo not given in full)", "Satisfied"],
  ["CC(C)C[C@H](NC(=O)C(=O)NO)C(=O)N[C@H](C)c1ccccc1", "Not satisfied"],
  ["C[C@H](NC(=O)[C@H](Cc1ccccc1)NC(=O)C(=O)NO)c1ccccc1", "Satisfied"]
]}

Please turn your attention to the following entry.
Asked: Determine whether this compound shows residual activity lower than 40% (ties excluded): C[C@H](NC(=O)[C@H](Cc1ccc2ccccc2c1)NC(=O)C(=O)NO)c1ccccc1
Given back: Satisfied

---

target: Neutrophil collagenase (Homo sapiens, UniProt P22894); assay: Tested for its inhibitory activity against neutrophil collagenase (Matrix metalloprotease-8)
Sequence (P22894 whole entry): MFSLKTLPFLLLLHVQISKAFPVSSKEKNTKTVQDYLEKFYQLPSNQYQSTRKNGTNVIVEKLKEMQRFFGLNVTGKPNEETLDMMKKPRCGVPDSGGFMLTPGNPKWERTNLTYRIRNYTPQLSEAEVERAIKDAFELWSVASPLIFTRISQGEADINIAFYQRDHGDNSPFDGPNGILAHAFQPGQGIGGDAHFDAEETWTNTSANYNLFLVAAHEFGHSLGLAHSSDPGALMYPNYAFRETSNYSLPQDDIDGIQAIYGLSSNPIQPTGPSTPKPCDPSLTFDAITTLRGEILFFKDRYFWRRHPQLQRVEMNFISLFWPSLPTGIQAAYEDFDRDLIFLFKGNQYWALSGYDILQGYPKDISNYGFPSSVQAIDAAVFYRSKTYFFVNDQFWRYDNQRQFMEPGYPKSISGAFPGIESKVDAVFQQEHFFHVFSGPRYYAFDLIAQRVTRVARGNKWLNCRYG
Assignment: determine reported pKi for the given molecules.
Numbers only, as −log10 of the molar value.

Here are 5 molecules together with their reported answers.
{"columns": ["molecule", "target.system", "pKi"],
 "data": [
  ["CN(C)C(=O)[C@H](Cc1c[nH]c2ccccc12)NC(=O)C(=O)NO", "Neutrophil collagenase (Homo sapiens, UniProt P22894)", 4.55],
  ["O=C(NO)C(=O)NCCc1c[nH]c2ccc(Cl)cc12", "Neutrophil collagenase (Homo sapiens, UniProt P22894)", 4.85],
  ["C[C@H](NC(=O)[C@H](Cc1ccccc1)NC(=O)C(=O)NO)c1ccccc1", "Neutrophil collagenase (Homo sapiens, UniProt P22894)", 6.37],
  ["CN(C)C(=O)[C@H](Cc1ccc(COc2ccccc2)cc1)NC(=O)C(=O)NO", "Neutrophil collagenase (Homo sapiens, UniProt P22894)", 4.66],
  ["C[C@H](NC(=O)C(=O)NO)C(=O)N[C@@H](C)c1ccccc1", "Neutrophil collagenase (Homo sapiens, UniProt P22894)", 5.22]
]}

Dear colleague, could you send me pKi for each of the items below? Thanks.
1. CN(C)C(=O)[C@H](Cc1ccccc1)NC(=O)C(=O)NO
2. C[C@H](NC(=O)[C@H](Cc1ccc(O)cc1)NC(=O)C(=O)NO)c1ccccc1
3. CC(OCc1ccccc1)[C@H](NC(=O)C(=O)NO)C(=O)N(C)C (stereo not given in full)
4. C[C@H](NC(=O)[C@H](Cc1c[nH]c2ccccc12)NC(=O)C(=O)NO)c1ccccc1

Given back:
1. 4.42
2. 6.60
3. 4.12
4. 6.40

Asked: Fill in the recorded pKi for this molecule, with Neutrophil collagenase (Homo sapiens, UniProt P22894) as test system: C[C@H](NC(=O)[C@H](Cc1ccc2ccccc2c1)NC(=O)C(=O)NO)c1ccccc1
Given back: 6.00

---

target: Matrix metalloproteinase-9 (Homo sapiens, UniProt P14780); assay: Percent remaining enzyme activity (RA) in human gelatinase B (matrix metalloprotease-9); set-up: concentration or dose not given beside the values
Record form. Attribute: residual activity. Fill in for each entry.
Numbers only, in %.

{"columns": ["molecule", "assay.result"],
 "data": [
  ["O=C(NO)C(=O)NCCc1c[nH]c2ccc(Cl)cc12", 2],
  ["O=C(NO)C(=O)N[C@@H](Cc1ccc(COc2ccccc2)cc1)C(=O)NO", 2],
  ["CN(C)C(=O)[C@H](Cc1ccc(COc2ccccc2)cc1)NC(=O)C(=O)NO", 7]
]}

Could you tell me residual activity for each of these molecules? They are listed below.
1. CC(C)C[C@H](NC(=O)C(=O)NO)C(=O)N[C@@H](C)c1ccccc1
2. CCCCC(CC)COCCCNC(=O)C(=O)NO (configuration not stated)
3. O=C(NO)C(=O)NCCN(C(=O)C(=O)NO)c1cccc2ccccc12
4. C[C@@H](NC(=O)C(=O)NO)c1ccc2ccccc2c1
5. CN(C)C(=O)[C@H](Cc1c[nH]c2ccccc12)NC(=O)C(=O)NO
6. C[C@H](NC(=O)[C@H](Cc1ccc(NC(=O)OCc2ccccc2)cc1)NC(=O)C(=O)NO)c1ccccc1
7. C[C@H](NC(=O)[C@H](Cc1ccc(NC(=O)Nc2ccccc2)cc1)NC(=O)C(=O)NO)c1ccccc1

Given back:
1. 9
2. 3
3. 0
4. 7
5. 25
6. 22
7. 5

Lab note: each molecule below needs its residual activity filled in.
1. CC(OCc1ccccc1)[C@H](NC(=O)C(=O)NO)C(=O)N(C)C (some centres not stated)
2. C[C@H](NC(=O)[C@H](Cc1ccc(O)cc1)NC(=O)C(=O)NO)c1ccccc1

Given back:
[18, 0]

Data provenance: ChEMBL document CHEMBL1136063
